Target: IRAK4 (Homo sapiens)
Sequence (Q9NWZ3 whole entry): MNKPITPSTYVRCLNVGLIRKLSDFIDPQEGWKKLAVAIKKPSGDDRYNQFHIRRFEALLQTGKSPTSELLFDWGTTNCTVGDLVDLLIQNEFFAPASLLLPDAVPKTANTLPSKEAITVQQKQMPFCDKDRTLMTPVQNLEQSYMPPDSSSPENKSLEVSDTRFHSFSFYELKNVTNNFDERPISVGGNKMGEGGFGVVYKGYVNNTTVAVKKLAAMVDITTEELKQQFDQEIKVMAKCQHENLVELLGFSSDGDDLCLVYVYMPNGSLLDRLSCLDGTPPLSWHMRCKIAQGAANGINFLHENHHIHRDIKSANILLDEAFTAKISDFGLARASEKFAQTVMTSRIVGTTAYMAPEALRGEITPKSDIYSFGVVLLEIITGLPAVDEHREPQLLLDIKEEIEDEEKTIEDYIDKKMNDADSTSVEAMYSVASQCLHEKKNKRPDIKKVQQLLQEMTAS
Assay: DiscoverX KINOMEscan competition binding, IRAK4
Parameters: purchased RBC (Reaction Biology) HotSpot assay
EXPERIMENTAL READOUT: Kd (nM)

COc1cc2ncc(-c3ccnc(N[C@H]4CNCC[C@@H]4F)n3)n2nc1C1CC1 [Compound 51] : 0.57

P: CC(O)(c1cn2c(-c3ccnc(N[C@H]4CNCC[C@@H]4F)n3)cnc2cn1)C(F)(F)F (single isomer, unassigned) [Compound 72]
Q: COc1cc2ncc(-c3ccnc(N[C@@H]4CCCNC4)n3)n2cc1C(C)(C)O [Compound 44]
R: COc1cc2ncc(-c3ccnc(N[C@H]4CNC[C@@H]4F)n3)n2nc1C1CC1 [Compound 49]
S: F[C@H]1CCNC[C@@H]1Nc1cncc(-c2cnc3cc(OC4CC4)ccn23)n1 [Compound 12]
Would you mind ranking these compounds by ascending Kd? Please list each label once, in the requested order.
Q, P, R, S
(Q: 0.072 nM, P: 0.38 nM, R: 0.56 nM, S: 0.81 nM)
